Reported LD50 by item:
Test: acute toxicity by the oral way in the mouse
Conditions: in vivo, PO
assayEndpoint: LD50 (mg/kg)

compound: Cc1cc2c(o1)CCc1ccccc1C2=CCCN(C)C
assayEndpoint: LD50
valueUnits: mg/kg
assayValue: 300
//
compound: CN(C)CCC=C1c2ccccc2CCc2ccccc21 [AMITRIPTYLINE, reference compound]
assayEndpoint: LD50
valueUnits: mg/kg
assayValue: 250

###

System: symptoms of trembling induced by oxotremorine
Assay: Antioxotremoric action in the mouse
Format: in vivo
Conditions: 100 mg/kg PO, oxotremorine 2 mg/kg IP
assayEndpoint: ANTI-OXOTREMORIC ACTION, percentage of inhibition of trembling symptoms

molecule: Cc1ccc2c(c1)CCc1oc(C)cc1C2=CCCN(C)C [compound no. 1]
assayValue: -35%
--
molecule: Cc1cc2c(o1)CCc1ccccc1C2=CCCN(C)C [compound no. 3]
assayValue: -75%
--
molecule: Cc1ccc2c(c1)C(=CCCN(C)C)c1cc(C)oc1CC2 [compound no. 2]
assayValue: -30%
--
molecule: CN(C)CCC=C1c2ccccc2CCc2ccccc21 [AMITRIPTYLINE, reference compound]
assayValue: -100%
